Experiment: protein stability index of a GFP-peptide fusion (GPS, HEK-293T) (PSI 1-6); higher = more stable;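 further: 24-mer peptide tiles fused after GFP, lentivirally expressed, FACS-sorted into six equal bins by GFP/DsRed ratio, decoded by Illumina sequencing, PSI is the read-weighted mean bin number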
Conditions: treatment: MLN4924 1 uM, 8 h; c terminus: a fixed tail appended
quantity_measured: protein stability index
Just the number, please.

Below, each entry is followed by its recorded protein stability index result.
| entry_sequence | quantity_measured | val |
| --- | --- | --- |
| LTLQVLVAGNPQDTRLRYSFFVPR [ADAMTS4] | protein stability index | 3.19 |
| SSSFSNLDLSEEDSDDPSVTLELS [VDR] | protein stability index | 5.16 |
| YLLMVTVILLPYVSKVTGWCRDRL [TMEM175] | protein stability index | 3.22 |
| DLKPENILFVNSEFETLYNEHKSC [CLK3] | protein stability index | 3.48 |

Please give measured protein stability index of the following entry: DPGHCFAESRELPVRCAGDWLPRG [ALG2]
3.05

Please give measured protein stability index of the following entry: YFITLGTDLAQQQGGGNGQQQQAM [KCNA4]
2.95

Please give measured protein stability index of the following entry: HIRHLGWNPDARYSEHFLQEAKLL [GLT8D2]
2.79
